// reported Max growth inhibition (%) for each item listed
Molecular target: PfRH5 from Plasmodium falciparum strain 7G8 (Plasmodium falciparum)
Assay: cell-based or functional assay
Response body: numeric value in %, unit text excluded.

The cases that follow already have their Max growth inhibition (%) on record.
H1H29127P (antibody, V domains shown) VH: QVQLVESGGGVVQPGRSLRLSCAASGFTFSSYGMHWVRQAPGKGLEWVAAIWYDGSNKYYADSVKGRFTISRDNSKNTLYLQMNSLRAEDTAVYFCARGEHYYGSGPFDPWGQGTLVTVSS VL: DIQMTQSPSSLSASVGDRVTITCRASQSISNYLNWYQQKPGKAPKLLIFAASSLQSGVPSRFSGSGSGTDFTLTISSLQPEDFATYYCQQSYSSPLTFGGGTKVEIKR ... 61.2
H1H29100P (antibody, V domains shown) VH: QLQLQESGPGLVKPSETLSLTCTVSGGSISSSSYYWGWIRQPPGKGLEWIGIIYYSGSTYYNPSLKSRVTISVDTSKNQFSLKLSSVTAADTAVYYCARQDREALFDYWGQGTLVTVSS VL: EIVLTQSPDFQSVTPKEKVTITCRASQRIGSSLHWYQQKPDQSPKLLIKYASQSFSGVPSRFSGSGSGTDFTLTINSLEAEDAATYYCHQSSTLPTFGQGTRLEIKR ... 66.4

Requested field: Max growth inhibition (%). Item: H1H29109P (antibody, V domains shown) VH: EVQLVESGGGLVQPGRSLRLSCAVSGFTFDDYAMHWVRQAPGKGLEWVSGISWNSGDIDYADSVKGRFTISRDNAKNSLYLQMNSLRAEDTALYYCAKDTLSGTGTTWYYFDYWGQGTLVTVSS VL: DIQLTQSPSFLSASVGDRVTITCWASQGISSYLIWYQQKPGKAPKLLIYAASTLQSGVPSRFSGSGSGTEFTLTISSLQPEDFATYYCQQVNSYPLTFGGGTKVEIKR
39

Requested field: Max growth inhibition (%). Item: H1H29089P (antibody, V domains shown) VH: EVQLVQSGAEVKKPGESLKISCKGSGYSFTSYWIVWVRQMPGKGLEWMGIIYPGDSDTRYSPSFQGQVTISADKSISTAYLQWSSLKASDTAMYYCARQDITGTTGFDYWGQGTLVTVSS VL: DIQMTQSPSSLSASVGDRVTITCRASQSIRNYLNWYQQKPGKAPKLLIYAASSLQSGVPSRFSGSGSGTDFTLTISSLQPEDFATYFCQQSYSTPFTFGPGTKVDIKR
70.1

Requested field: Max growth inhibition (%). Item: H1H29104P (antibody, V domains shown) VH: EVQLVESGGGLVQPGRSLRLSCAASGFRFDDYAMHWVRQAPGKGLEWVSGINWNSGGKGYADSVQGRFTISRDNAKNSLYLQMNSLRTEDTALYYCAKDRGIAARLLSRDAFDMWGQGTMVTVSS VL: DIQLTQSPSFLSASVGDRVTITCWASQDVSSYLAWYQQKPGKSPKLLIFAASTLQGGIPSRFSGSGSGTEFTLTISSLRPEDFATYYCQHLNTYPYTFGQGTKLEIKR
35.2

Requested field: Max growth inhibition (%). Item: H1H29125P (antibody, V domains shown) VH: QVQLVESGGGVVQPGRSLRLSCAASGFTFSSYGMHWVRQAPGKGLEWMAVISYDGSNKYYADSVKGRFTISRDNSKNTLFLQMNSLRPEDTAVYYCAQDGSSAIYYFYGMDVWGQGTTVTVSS VL: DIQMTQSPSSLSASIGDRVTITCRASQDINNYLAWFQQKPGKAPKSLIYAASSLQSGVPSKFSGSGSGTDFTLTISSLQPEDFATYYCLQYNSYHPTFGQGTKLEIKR
47

Requested field: Max growth inhibition (%). Item: H1H29138P (antibody, V domains shown) VH: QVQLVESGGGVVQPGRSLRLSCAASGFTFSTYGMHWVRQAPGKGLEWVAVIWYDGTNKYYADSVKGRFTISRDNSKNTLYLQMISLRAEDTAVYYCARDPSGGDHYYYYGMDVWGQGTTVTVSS VL: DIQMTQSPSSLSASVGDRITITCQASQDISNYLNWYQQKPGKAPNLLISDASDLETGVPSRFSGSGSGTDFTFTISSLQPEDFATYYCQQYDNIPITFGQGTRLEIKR
57.4
